Cited source for all entries: PubChem BioAssay (EPA / NIEHS)

read-out: Glutamate-cysteine ligase regulatory (GCLM), GCLM (gene 2730); assay: LTEA_HepaRG_GCLM: Life Technologies and Expression Analysis (LTEA) Assay for Glutamate-cysteine ligase regulatory (GCLM) using HepaRG (AID 2283500); conditions: mRNA level, 48 h; actives raise or lower the signal
Calls of active or inactive are those of the source. The calls were made as follows: active = hit-call score of the fitted dose curve at least 0.9, where 1 is the maximum; inactive = score below 0.9.
Hello, when you answer, please use one of the following outcomes: TRUE (active), FALSE (inactive)

Compound	Class label
COC(=O)c1ccccc1C(=O)OC	FALSE
CCNc1nc(Cl)nc(NC(C)C)n1	FALSE
CC1=C(C(=O)Nc2ccccc2)SCCO1	FALSE
N#CC(CCc1ccc(Cl)cc1)(Cn1cncn1)c1ccccc1 (configuration not stated)	TRUE
COP(N)(=O)SC (configuration not stated)	FALSE

Name the outcome recorded for CCOc1cc(Oc2ccc(C(F)(F)F)cc2Cl)ccc1[N+](=O)[O-] in the assay.
TRUE

Name the outcome recorded for Fc1ccc(Oc2ccnc3cc(Cl)cc(Cl)c23)cc1 in the assay.
FALSE

* * *

read-out: Transforming Growth Factor (TGFA), TGFA (gene 7039); assay: LTEA_HepaRG_TGFA: Life Technologies and Expression Analysis (LTEA) Assay for Transforming Growth Factor (TGFA) using HepaRG (AID 2283532); settings: mRNA level, 48 h; actives raise or lower the signal
Active and inactive are the calls of the source. Rule for the calls: active = hit-call score of the fitted dose curve at least 0.9, where 1 is the maximum; inactive = score below 0.9.
Experimental readout: AC50

Use the examples below as a reference point.
Compound	AC50
N#Cc1nn(-c2c(Cl)cc(C(F)(F)F)cc2Cl)c(N)c1S(=O)C(F)(F)F (stereo not drawn)	33.2 µM (active)
CS/C(C)=N/OC(=O)N(C)SN(C)C(=O)O/N=C(\C)SC	inactive
COC(=O)C=C(C)OP(=O)(OC)OC	inactive
C=CCC1=C(C)C(OC(=O)C2C(C=C(C)C)C2(C)C)CC1=O (stereo not drawn)	inactive
CCCCC(CC)COC(=O)c1ccccc1C(=O)OCC(CC)CCCC (stereo not drawn)	inactive
COc1nc(NC(C)C)nc(NC(C)C)n1	inactive
Cc1c(F)c(F)c(COC(=O)C2C(/C=C(\Cl)C(F)(F)F)C2(C)C)c(F)c1F (stereo not drawn)	inactive
Oc1ccccc1-c1ccccc1	inactive

I'm hoping you can list AC50 for every compound here, please.
1. COc1ccc(C(c2ccc(OC)cc2)C(Cl)(Cl)Cl)cc1
2. CC(Oc1ccc(Cl)cc1Cl)C(=O)O (stereo not drawn)
3. CON(C)C(=O)Nc1ccc(Cl)c(Cl)c1
4. O=C(O)c1nc(Cl)ccc1Cl
5. COc1cnc(OC)n2nc(NS(=O)(=O)c3c(OCC(F)F)cccc3C(F)(F)F)nc12

inactive
inactive
inactive
inactive
inactive

* * *

assay: Tanguay_ZF_120hpf_BRAI_legacy: (Legacy) Oregon State University Tanguay Lab 120 Hour Post-fertilization zebrafish Assay for Brain Malformation (AID 2283641)
Inconclusive results are not listed. The source made the active and inactive calls. How the source made its calls: active means hit-call score of the fitted dose curve at least 0.9, where 1 is the maximum; inconclusive means response in the unintended direction; inactive means score below 0.9.
Hello, when you answer, please use one of the following outcomes: active, inactive

Name the outcome recorded for CCCC1COC(Cn2cncn2)(c2ccc(Cl)cc2Cl)O1 (stereo not given) in the assay.
active

Name the outcome recorded for CCCCOC(=O)c1ccccc1C(=O)OCCCC in the assay.
inactive

Name the outcome recorded for CO/C=C(/C(=O)OC)c1ccccc1Oc1cc(Oc2ccccc2C#N)ncn1 in the assay.
inactive

Name the outcome recorded for C=CC1(C)OC(=O)N(c2cc(Cl)cc(Cl)c2)C1=O (stereo not given) in the assay.
inactive

Name the outcome recorded for CC(C)(C)c1ccc(CSc2cnn(C(C)(C)C)c(=O)c2Cl)cc1 in the assay.
inactive

Name the outcome recorded for CON(C)C(=O)Nc1ccc(Cl)c(Cl)c1 in the assay.
inactive

Name the outcome recorded for N#Cc1cc(Br)c(O)c(Br)c1 in the assay.
inactive

Name the outcome recorded for CC(C)C1(C)N=C(c2nc3ccccc3cc2C(=O)O)NC1=O (stereo not given) in the assay.
inactive

Name the outcome recorded for CCc1nn(C)c(C(=O)NCc2ccc(C(C)(C)C)cc2)c1Cl in the assay.
inactive

Name the outcome recorded for C=CCC1=C(C)[C@@H](OC(=O)[C@@H]2[C@@H](C=C(C)C)C2(C)C)CC1=O in the assay.
inactive

Name the outcome recorded for COc1nc(NC(C)C)nc(NC(C)C)n1 in the assay.
inactive

* * *

read-out: growth arrest and DNA damage 45 (GADD45G), GADD45G (gene 10912); experiment: LTEA_HepaRG_GADD45G: Life Technologies and Expression Analysis (LTEA) Assay for growth arrest and DNA damage 45 (GADD45G) using HepaRG (AID 2283499); conditions: mRNA level, 48 h; actives raise or lower the signal
Activity calls are given as the source filed them. Rule for the calls: active = hit-call score of the fitted dose curve at least 0.9, where 1 is the maximum; inactive = score below 0.9.
Hello, when you answer, please use one of the following outcomes: active, inactive

Recorded results for 2 molecules are shown here.
Molecule	Class label
O=C(O)c1nc(Cl)ccc1Cl	inactive
Cc1c(F)c(F)c(COC(=O)C2C(/C=C(\Cl)C(F)(F)F)C2(C)C)c(F)c1F (stereo unspecified)	inactive

Name the outcome recorded for CNC(=O)ON=CC(C)(C)SC in the assay.
inactive

Name the outcome recorded for OC(c1ccc(Cl)cc1)(c1cncnc1)c1ccccc1Cl (stereo unspecified) in the assay.
active

* * *

target: human CYP2C9, CYP2C9 (gene 1559) (UniProt P11712); assay: NVS_ADME_hCYP2C9: NovaScreen (NVS) CYP450-related Enzyme Activity (ADME) Assay for human CYP2C9 (AID 2283108)
Sequence (P11712 whole entry, looked up): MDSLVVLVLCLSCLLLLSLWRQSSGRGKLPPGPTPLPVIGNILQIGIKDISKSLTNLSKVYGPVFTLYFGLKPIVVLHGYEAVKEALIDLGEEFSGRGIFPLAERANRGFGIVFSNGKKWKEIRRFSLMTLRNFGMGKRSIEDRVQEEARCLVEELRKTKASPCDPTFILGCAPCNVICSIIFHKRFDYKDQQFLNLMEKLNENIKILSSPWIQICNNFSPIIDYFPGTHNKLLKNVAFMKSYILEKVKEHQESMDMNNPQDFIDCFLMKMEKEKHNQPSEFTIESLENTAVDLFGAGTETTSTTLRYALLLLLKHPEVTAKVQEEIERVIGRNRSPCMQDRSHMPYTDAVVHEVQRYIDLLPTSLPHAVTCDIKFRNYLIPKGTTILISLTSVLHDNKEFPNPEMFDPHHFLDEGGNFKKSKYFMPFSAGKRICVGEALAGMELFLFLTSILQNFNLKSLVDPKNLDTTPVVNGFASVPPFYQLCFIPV
Records with an inconclusive call do not appear. Calls of active or inactive are those of the source. How the source made its calls: active means hit-call score of the fitted dose curve at least 0.9, where 1 is the maximum; inconclusive means response in the unintended direction; inactive means score below 0.9.
Experimental readout: AC50

Use the examples below as a reference point.
Compound	Experimental readout	Observed measurement
CO/C=C(/C(=O)OC)c1ccccc1Oc1cc(Oc2ccccc2C#N)ncn1	AC50	inactive
CN(C)C(=S)SSC(=S)N(C)C	AC50	1.92 µM (active)
CNC(=S)S	AC50	inactive
OC(c1ccc(Cl)cc1)(c1cncnc1)c1ccccc1Cl (stereo unspecified)	AC50	2.35 µM (active)

I'm hoping you can list AC50 for every compound here, please.
1. CCOC(=O)CC(SP(=S)(OC)OC)C(=O)OCC (stereo unspecified)
2. Cc1ccc(-c2c(Cl)nc(C#N)n2S(=O)(=O)N(C)C)cc1

1. 0.752 µM (active)
2. 4.54 µM (active)

* * *

read-out: Broad substrate specificity ATP-binding cassette transporter ABCG2 (Homo sapiens); experiment: LTEA_HepaRG_ABCG2: Life Technologies and Expression Analysis (LTEA) Assay for ABC Transporter (ABCG2) using HepaRG (AID 2283465); settings: mRNA level, 48 h; actives raise or lower the signal
Calls of active or inactive are those of the source. How the source made its calls: active means hit-call score of the fitted dose curve at least 0.9, where 1 is the maximum; inactive means score below 0.9.
Hello, when you answer, please use one of the following outcomes: active, inactive

Recorded results for 3 compounds are shown here.
Compound	Class label
COP(N)(=O)SC (configuration not stated)	inactive
CC(C)(C)c1ccc(CSc2cnn(C(C)(C)C)c(=O)c2Cl)cc1	active
N#Cc1nn(-c2c(Cl)cc(C(F)(F)F)cc2Cl)c(N)c1S(=O)C(F)(F)F (configuration not stated)	active

Please look at the following compound next.
Name the outcome recorded for OC(c1ccc(Cl)cc1)(c1cncnc1)c1ccccc1Cl (configuration not stated) in the assay.
inactive

* * *

molecular target: Transcription factor Sp1 (Homo sapiens) (UniProt P08047); test: ATG_Sp1_CIS: Attagene CIS-FACTORIAL HepG2 Assay for human Specificity Protein 1 (Sp1) (AID 2282961); conditions: HepG2 Sp1 cis-reporter transcription, actives raise or lower the signal
Sequence (P08047 whole entry, looked up): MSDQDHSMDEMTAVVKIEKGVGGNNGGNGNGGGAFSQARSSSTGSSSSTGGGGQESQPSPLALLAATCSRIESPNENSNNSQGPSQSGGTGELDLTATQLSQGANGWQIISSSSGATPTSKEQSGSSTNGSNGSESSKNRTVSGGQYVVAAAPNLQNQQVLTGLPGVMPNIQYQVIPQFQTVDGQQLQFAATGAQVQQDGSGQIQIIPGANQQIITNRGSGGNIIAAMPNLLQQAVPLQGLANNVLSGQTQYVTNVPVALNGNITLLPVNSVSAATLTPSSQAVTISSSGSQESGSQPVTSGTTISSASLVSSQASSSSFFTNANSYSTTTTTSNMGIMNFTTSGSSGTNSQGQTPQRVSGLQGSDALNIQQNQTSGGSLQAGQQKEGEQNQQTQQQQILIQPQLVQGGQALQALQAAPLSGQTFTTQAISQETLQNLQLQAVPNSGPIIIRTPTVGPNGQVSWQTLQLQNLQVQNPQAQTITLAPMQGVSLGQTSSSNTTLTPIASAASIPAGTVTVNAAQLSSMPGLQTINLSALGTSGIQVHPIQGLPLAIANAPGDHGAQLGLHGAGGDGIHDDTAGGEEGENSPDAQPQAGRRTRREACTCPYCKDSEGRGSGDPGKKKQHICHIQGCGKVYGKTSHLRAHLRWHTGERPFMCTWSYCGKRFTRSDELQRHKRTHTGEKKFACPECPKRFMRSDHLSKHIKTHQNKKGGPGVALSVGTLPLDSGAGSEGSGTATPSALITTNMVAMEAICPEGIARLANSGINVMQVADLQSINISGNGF
Active and inactive are the calls of the source. The calls were made as follows: active = hit-call score of the fitted dose curve at least 0.9, where 1 is the maximum; inactive = score below 0.9.
Hello, when you answer, please use one of the following outcomes: True (active), False (inactive)

Recorded results for 3 compounds are shown here.
Compound	Class label
CCc1nn(C)c(C(=O)NCc2ccc(C(C)(C)C)cc2)c1Cl	False
CC(Oc1ccc(Cl)cc1Cl)C(=O)O (stereo not given)	False
O=C(O)COc1nc(Cl)c(Cl)cc1Cl	False

Name the outcome recorded for Cc1cc(Cl)ccc1OCC(=O)O in the assay.
False

Name the outcome recorded for COc1cnc(OC)n2nc(NS(=O)(=O)c3c(OCC(F)F)cccc3C(F)(F)F)nc12 in the assay.
False

Name the outcome recorded for O=C(O)c1nc(Cl)ccc1Cl in the assay.
False

Name the outcome recorded for COc1nc(NC(C)C)nc(NC(C)C)n1 in the assay.
False

Name the outcome recorded for COC(=O)C(C)Oc1ccc(Oc2ccc(Cl)cc2Cl)cc1 (stereo not given) in the assay.
False

Name the outcome recorded for O=C(Nc1ccccc1)Nc1ccnc(Cl)c1 in the assay.
True

Name the outcome recorded for CON(C)C(=O)Nc1ccc(Cl)c(Cl)c1 in the assay.
False

Name the outcome recorded for CC1COC(Cn2cncn2)(c2ccc(Oc3ccc(Cl)cc3)cc2Cl)O1 (stereo not given) in the assay.
False

Name the outcome recorded for CCOc1cc(Oc2ccc(C(F)(F)F)cc2Cl)ccc1[N+](=O)[O-] in the assay.
False

Name the outcome recorded for CS/C(C)=N/OC(=O)N(C)SN(C)C(=O)O/N=C(\C)SC in the assay.
False

Name the outcome recorded for N#Cc1cc(Br)c(O)c(Br)c1 in the assay.
False

Name the outcome recorded for CCOC(=O)C(Cl)Cc1cc(-n2nc(C)n(C(F)F)c2=O)c(F)cc1Cl (stereo not given) in the assay.
False

Name the outcome recorded for CCNc1nc(Cl)nc(NC(C)C)n1 in the assay.
False

Name the outcome recorded for CCON=C(CC)C1=C(O)CC(c2c(C)cc(C)cc2C)CC1=O (stereo not given) in the assay.
False

Name the outcome recorded for N#CC(CCc1ccc(Cl)cc1)(Cn1cncn1)c1ccccc1 (stereo not given) in the assay.
False

Name the outcome recorded for C=CCC1=C(C)[C@@H](OC(=O)[C@@H]2[C@@H](C=C(C)C)C2(C)C)CC1=O in the assay.
False

Name the outcome recorded for COC(=O)N(OC)c1ccccc1COc1ccn(-c2ccc(Cl)cc2)n1 in the assay.
False
